Each recorded value in this set is attributed to PubChem BioAssay (NCATS).

test system: C33A; experiment: Primary qHTS to identify gynecologic anti-cancer compounds using libraries of approved drugs and bioactive compounds (AID 1345084); conditions: Gynecologic cancer cell panel viability, ATPlite luminescence, 48 h; series mostly up to 57.5 µM; further: nearly all actives have a fitted effect of over 55% in size
Results filed as inconclusive are left out. The source made the active and inactive calls. The call rests on the fitted dose curve; in most records, active means well fitted cell-killing curve with a large enough effect; inconclusive means small, poorly fitted or top-dose-only effect, or effect the other way; inactive means flat fitted curve, though single readings scatter.
Parameter call: string, one of active, inactive

compound: COc1ccc2c(c1)c(CC(=O)O)c(C)n2C(=O)c1ccc(Cl)cc1
classification: inactive
//
compound: OCCN(CCO)c1nc(N2CCCCC2)c2nc(N(CCO)CCO)nc(N3CCCCC3)c2n1
classification: inactive
//
compound: COc1ccccc1OCCNCC(O)COc1cccc2[nH]c3ccccc3c12 (stereo not given)
classification: inactive
//
compound: O=C(c1ccc(OCCN2CCCCC2)cc1)c1c(-c2ccc(O)cc2)sc2cc(O)ccc12
classification: inactive
//
compound: CC#C[C@]1(O)CC[C@H]2[C@@H]3CCC4=CC(=O)CCC4=C3[C@@H](c3ccc(N(C)C)cc3)C[C@@]21C
classification: inactive
//
compound: COc1ccccc1N1CCN(CC(O)COc2cccc3ccccc23)CC1 (stereo not given)
classification: active
//
compound: Clc1ccc2nsnc2c1NC1=NCCN1
classification: inactive
//
compound: Cc1cc(C(C)(C)C)cc(C)c1CC1=NCCN1
classification: inactive
//
compound: C[C@@H]1CC(=O)NN=C1c1ccc(NN=C(C#N)C#N)cc1
classification: inactive

Please find the next compound below.
Each compound tested received a call. Report the one for CC1COc2c(N3CCN(C)CC3)c(F)cc3c(=O)c(C(=O)O)cn1c23 (stereo not given) .
inactive

###

assay: qHTS assay for small molecule antagonists of retinoid X receptor alpha signaling (AID 588546); settings: HEK293T RXRa-UAS-bla, beta-lactamase ratio, antagonist mode; measured here: W530 green channel, cytotoxicity proxy;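 further: cells stimulated with 9-cis-retinoic acid as agonist; on the % scale 0 is the no-effect control and ±100 the full control effect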
Inconclusive results are not listed.
The following compounds are listed with their measured max response values.

Previously resolved entries follow.
compound: Nc1c2c(nc3ccccc13)CCCC2
max response: 12.8%
--
compound: CC(C)(Oc1ccc(C2CC2(Cl)Cl)cc1)C(=O)O (stereo not drawn)
max response: 3.34%
--
compound: Cn1c(=O)c2[nH]cnc2n(C)c1=O
max response: -3.21%
--
compound: Cn1cnc2c1c(=O)[nH]c(=O)n2C
max response: -0.801%
--
compound: O=c1c(-c2ccc(O)cc2)coc2cc(O)cc(O)c12
max response: 18.6%

max response reported for this compound O=C(c1ccc(OCCN2CCCCC2)cc1)c1c(-c2ccc(O)cc2)sc2cc(O)ccc12 : -24.2%

Entry N[C@@H](Cc1c[nH]c2ccc(O)cc12)C(=O)O ; max response = 1.87%

Entry under test: CCOC(=O)C(C)(C)Oc1ccc(Cl)cc1 . Its max response was -5.41%

###

assay: qHTS Screen of the MIPE 4.0 Collection Against Ewings Sarcoma (TC71) (AID 1259253); details: TC71 Ewing sarcoma viability, CellTiter-Glo, 48 h; series mostly up to 45.8 µM; further: nearly all actives have a fitted effect of over 40% in size; further: potency means the concentration at half of the fitted maximal effect
Results filed as inconclusive are left out. Active and inactive are the calls of the source. The call rests on the fitted dose curve; in most records, active means well fitted inhibition curve with a large enough effect; inconclusive means small, poorly fitted or top-dose-only effect; inactive means no such curve, though single readings can be large or run the other way.
parameter-measured: Potency

Below, each entry is followed by its recorded Potency result.
compound: CC#C[C@]1(O)CC[C@H]2[C@@H]3CCC4=CC(=O)CCC4=C3[C@@H](c3ccc(N(C)C)cc3)C[C@@]21C
Potency: 0.264 µM (active)
--
compound: Cn1ccc2cc3c(cc21)CCN3C(=O)Nc1cccnc1
Potency: 23.5 µM (active)
--
compound: Clc1ccc2c(c1)C(N1CCNCC1)=Nc1ccccc1O2
Potency: 16.6 µM (active)
--
compound: CC(C)Cc1ccc(C(C)C(=O)O)cc1 (centres undefined)
Potency: inactive
--
compound: Fc1ccc([C@@H]2CCNC[C@H]2COc2ccc3c(c2)OCO3)cc1
Potency: 18.7 µM (active)

Potency measured on Cc1ccc(C(=O)Nc2ccc(S(=O)(=O)O)c3cc(S(=O)(=O)O)cc(S(=O)(=O)O)c23)cc1NC(=O)c1cccc(NC(=O)Nc2cccc(C(=O)Nc3cc(C(=O)Nc4ccc(S(=O)(=O)O)c5cc(S(=O)(=O)O)cc(S(=O)(=O)O)c45)ccc3C)c2)c1 = inactive

Per the records, this compound ( O=c1c(O)c(-c2ccc(O)c(O)c2)oc2cc(O)cc(O)c12 ) has Potency equal to 18.7 µM (active)

The compound listed as Cc1ccccc1N1C(=O)c2cc(S(N)(=O)=O)c(Cl)cc2NC1C (centres undefined) shows Potency equal to inactive

Lab note: Cc1cn([C@H]2C=C[C@@H](CO)O2)c(=O)[nH]c1=O gave Potency of inactive
